Tested on: Staphylococcus aureus
Assay: Antimicrobial activity against Staphylococcus aureus Smith by micro broth dilution or agar based method
Assay type: functional
// reported MIC for each item listed
Value expressed in µg/mL; do not type the unit.

// known answers, use as guide
| compound | MIC / µg/mL |
| --- | --- |
| O=C(O)CCCCOc1ccc2ncc(F)c(CCC34CCC(NCc5ccc6c(n5)NC(=O)CO6)(CC3)CO4)c2n1 | 0.063 |
| COC(=O)[C@H]1C[C@@H]1COc1ccc2ncc(F)c(CCC34CCC(NCc5ccc6c(n5)NC(=O)CO6)(CC3)CO4)c2n1 (relative stereo) | 0.031 |
| O=C1COc2ccc(CNC34CCC(CCc5c(F)cnc6ccc(OCCCCO)nc56)(CC3)OC4)nc2N1 | 0.031 |
| N[C@H]1COC[C@@H]1Oc1ccc2ncc(F)c(CCC34CCC(NCc5ccc6c(n5)NC(=O)CO6)(CC3)CO4)c2n1 | 0.25 |
| NC1COCC1Oc1ccc2ncc(F)c(CCC34CCC(NCc5ccc6c(n5)NC(=O)CO6)(CC3)CO4)c2n1 (stereo not drawn) | 0.125 |
| CC(C)CCOc1ccc2ncc(F)c(CCC34CCC(NCc5ccc6c(n5)NC(=O)CO6)(CC3)CO4)c2n1 | 0.125 |

// returns reported MIC for input `O=C1COc2ccc(CNC34CCC([C@@H](O)Cc5c(F)cnc6ccc(OCCCO)nc56)(CC3)OC4)nc2N1`
0.125

// returns reported MIC for input `O=C1COc2ccc(CNC34CCC([C@@H](O)Cc5c(F)cnc6ccc(OCCO)nc56)(CC3)OC4)nc2N1`
0.125

---

Assay: Plasma clearance in Sprague-Dawley rat at 2 mg/kg, iv or 5 mg/kg, po
Assay type: ADME, organism-based
measurement name: clearance (mL/min/kg)
Value expressed in mL/min/kg; do not type the unit.

// returns reported clearance for input `Cl.O=C1COc2ccc(CNC34CCC(CCc5c(F)cnc6ccc(OCCCO)nc56)(CC3)OC4)nc2N1`
33.2

---

System: Pseudomonas aeruginosa
Assay: Antimicrobial activity against Pseudomonas aeruginosa PAO1 by micro broth dilution or agar based method
Assay type: functional
measurement name: MIC (µg/mL)
Value expressed in µg/mL; do not type the unit.

// known answers, use as guide
| compound | measurement unit | MIC |
| --- | --- | --- |
| NCC(O)COc1ccc2ncc(F)c(CCC34CCC(NCc5ccc6c(n5)NC(=O)CO6)(CC3)CO4)c2n1 (stereo unspecified) | µg/mL | 16 |
| O=C1COc2ccc(CNC34CCC(CCc5c(F)cnc6ccc(OCCCCCO)nc56)(CC3)OC4)nc2N1 | µg/mL | 8 |
| CCOc1ccc2ncc(F)c(CCC34CCC(NCc5ccc6c(n5)NC(=O)CO6)(CC3)CO4)c2n1 | µg/mL | 8 |
| COCCOc1ccc2ncc(F)c(CCC34CCC(NCc5ccc6c(n5)NC(=O)CO6)(CC3)CO4)c2n1 | µg/mL | 16 |
| O=C1COc2ccc(CNC34CCC(CCc5c(F)cnc6ccc(OC[C@H]7C[C@@H]7C(=O)O)nc56)(CC3)OC4)nc2N1 | µg/mL | 16 |

// returns reported MIC for input `O=C1COc2ccc(CNC34CCC(CCc5c(F)cnc6ccc(OCC7(C(=O)O)CC7)nc56)(CC3)OC4)nc2N1`
16

// returns reported MIC for input `NC(=O)C(F)(F)CCOc1ccc2ncc(F)c(CCC34CCC(NCc5ccc6c(n5)NC(=O)CO6)(CC3)CO4)c2n1`
32

// returns reported MIC for input `C=CCOc1ccc2ncc(F)c(CCC34CCC(NCc5ccc6c(n5)NC(=O)CO6)(CC3)CO4)c2n1`
16

// returns reported MIC for input `CC(C)COc1ccc2ncc(F)c(CCC34CCC(NCc5ccc6c(n5)NC(=O)CO6)(CC3)CO4)c2n1`
16

// returns reported MIC for input `COC(=O)C1(COc2ccc3ncc(F)c(CCC45CCC(NCc6ccc7c(n6)NC(=O)CO7)(CC4)CO5)c3n2)CC1`
16

// returns reported MIC for input `O=C1COc2ccc(CNC34CCC(CCc5c(F)cnc6ccc(OC(F)F)nc56)(CC3)OC4)nc2N1`
4

// returns reported MIC for input `O=C1COc2ccc(CNC34CCC(CCc5c(F)cnc6ccc(OCCC(F)(F)C(=O)O)nc56)(CC3)OC4)nc2N1`
16

// returns reported MIC for input `O=C1COc2ccc(CNC34CCC([C@@H](O)Cc5c(F)cnc6ccc(OCCCO)nc56)(CC3)OC4)nc2N1`
16

// returns reported MIC for input `N[C@H]1CO[C@H]1COc1ccc2ncc(F)c(CCC34CCC(NCc5ccc6c(n5)NC(=O)CO6)(CC3)CO4)c2n1`
32

// returns reported MIC for input `NCCCOc1ccc2ncc(F)c(CCC34CCC(NCc5ccc6c(n5)NC(=O)CO6)(CC3)CO4)c2n1`
8

// returns reported MIC for input COC(=O)[C@H]1C[C@@H]1COc1ccc2ncc(F)c(CCC34CCC(NCc5ccc6c(n5)NC(=O)CO6)(CC3)CO4)c2n1 (relative stereo)
16

---

// reported MIC for each item listed
System: Escherichia coli
Test: Antimicrobial activity against Escherichia coli ATCC 25922 by micro broth dilution or agar based method
Type: functional
Value expressed in µg/mL; do not type the unit.

// returns reported MIC for input `CC(C)COc1ccc2ncc(F)c(CCC34CCC(NCc5ccc6c(n5)NC(=O)CO6)(CC3)CO4)c2n1`
16

// returns reported MIC for input `O=C(O)CCCOc1ccc2ncc(F)c(CCC34CCC(NCc5ccc6c(n5)NC(=O)CO6)(CC3)CO4)c2n1`
16

---

Tested on: Pseudomonas aeruginosa
Assay: Antimicrobial activity against Pseudomonas aeruginosa PAO1 by micro broth dilution or agar based method
Type: functional
measurement name: MIC (µg/mL)
Value expressed in µg/mL; do not type the unit.

// known answers, use as guide
| compound | study system | measurement name | measured |
| --- | --- | --- | --- |
| O=C1COc2ccc(CNC34CCC(CCc5c(F)cnc6ccc(OCC(O)CO)nc56)(CC3)OC4)nc2N1 (stereo not drawn) | Pseudomonas aeruginosa | MIC | 32 |
| O=C1COc2ccc(CNC34CCC(CCc5c(F)cnc6ccc(OCCCO)nc56)(CC3)OC4)nc2N1 | Pseudomonas aeruginosa | MIC | 16 |
| NC1CC1COc1ccc2ncc(F)c(CCC34CCC(NCc5ccc6c(n5)NC(=O)CO6)(CC3)CO4)c2n1 (stereo not drawn) | Pseudomonas aeruginosa | MIC | 16 |

// returns reported MIC for input `N[C@H]1C(=O)N[C@@H]1COc1ccc2ncc(F)c(CCC34CCC(NCc5ccc6c(n5)NC(=O)CO6)(CC3)CO4)c2n1`
32

// returns reported MIC for input `O=C1COc2ccc(CNC34CCC(CCc5c(F)cnc6ccc(OCCCCO)nc56)(CC3)OC4)nc2N1`
16

// returns reported MIC for input `N[C@@H]1COC[C@H]1Oc1ccc2ncc(F)c(CCC34CCC(NCc5ccc6c(n5)NC(=O)CO6)(CC3)CO4)c2n1`
16

// returns reported MIC for input `O=C(O)CCCOc1ccc2ncc(F)c(CCC34CCC(NCc5ccc6c(n5)NC(=O)CO6)(CC3)CO4)c2n1`
16

// returns reported MIC for input O=C1COc2ccc(CNC34CCC(CCc5c(F)cnc6ccc(OC7CC(O)CC(O)C7)nc56)(CC3)OC4)nc2N1 (stereo not drawn)
64

---

System: Escherichia coli
Assay: Antimicrobial activity against Escherichia coli ATCC 25922 by micro broth dilution or agar based method
Type: functional
measurement name: MIC (µg/mL)
Value expressed in µg/mL; do not type the unit.

// known answers, use as guide
| input smiles | measurement unit | measured |
| --- | --- | --- |
| NCCCOc1ccc2ncc(F)c(CCC34CCC(NCc5ccc6c(n5)NC(=O)CO6)(CC3)CO4)c2n1 | µg/mL | 2 |
| N[C@@H]1C(=O)NC[C@H]1Oc1ccc2ncc(F)c(CCC34CCC(NCc5ccc6c(n5)NC(=O)CO6)(CC3)CO4)c2n1 | µg/mL | 16 |
| O=C1COc2ccc(CNC34CCC([C@@H](O)Cc5c(F)cnc6ccc(OCCO)nc56)(CC3)OC4)nc2N1 | µg/mL | 8 |
| COc1ccc2ncc(F)c(C[C@H](O)C34CCC(NCc5ccc6c(n5)NC(=O)CO6)(CC3)CO4)c2n1 | µg/mL | 2 |
| N[C@H]1CO[C@@H]1COc1ccc2ncc(F)c(CCC34CCC(NCc5ccc6c(n5)NC(=O)CO6)(CC3)CO4)c2n1 | µg/mL | 4 |
| NCCCCCOc1ccc2ncc(F)c(CCC34CCC(NCc5ccc6c(n5)NC(=O)CO6)(CC3)CO4)c2n1 | µg/mL | 4 |

// returns reported MIC for input `O=C1COc2ccc(CNC34CCC(CCc5c(F)cnc6ccc(OCC7(C(=O)O)CC7)nc56)(CC3)OC4)nc2N1`
16

// returns reported MIC for input `O=C1COc2ccc(CNC34CCC(CCc5c(F)cnc6ccc(OCCC(F)(F)C(=O)O)nc56)(CC3)OC4)nc2N1`
16

Values were extracted from ChEMBL document CHEMBL3603744.
